tested on: KM12 colon; experiment: NCI tumour cell line growth inhibition, 48 h
assay metric: TGI

>>> meas_value("OCCSCC/C(=N\\N=C(/CCSCCO)c1ccccc1)c1ccccc1")
"> 100 µM"
>>> meas_value("COC1C(O)CC(OC2CC(OC3CC(O[C@@H]4C(=O)c5c(cc6cc(OC7CC(OC8CC(O)C(O)C(C)O8)C(O)C(C)O7)c(C)c(O)c6c5O)C[C@H]4[C@H](OC)C(=O)[C@@H](O)[C@@H](C)O)OC(C)C3O)OC(C)C2O)OC1C (some centres undefined)")
"> 12 µM"
>>> meas_value("C[CH2][Ge]([CH2]C)([CH2]C)[O]C(=O)C([O][Ge]([CH2]C)([CH2]C)[CH2]C)c1ccccc1 (centres undefined)")
"26.1 µM"
>>> meas_value("C/C(=C(/C)c1cc[n+](C)cc1)c1cc[n+](C)cc1")
"> 75 µM"

TGI for CC(=O)C(N=NC1CCC(S(=O)(=O)NB2N=CS2)CC1)C(=O)Nc1ccccc1C (centres undefined) is 30.1 µM

TGI for O=C1OC(C2Cc3ccc4c(c3C2=O)CCCC4)c2ccccc21 (centres undefined) is > 100 µM

TGI for Brc1ccc(N=Nc2ccc3ccccc3n2)cc1 is > 100 µM

TGI for Cc1cccc(C)c1NC(=O)CCCC(=O)C(C#N)c1ccc(Cl)cc1 (centres undefined) is > 100 µM

TGI for CC(C)=CC[C@H]1C[C@@]2(CC=C(C)C)C(=O)/C(=C(/O)c3ccccc3)C(=O)[C@](CC=C(C)C)(C2=O)C1(C)C is 19.9 µM

TGI for C[N+]1(C)C/C(=C\c2ccc(O)cc2)C(=O)/C(=C/c2ccc(O)cc2)C1 is > 100 µM

* * *

tested on: HS 578T breast; test: NCI tumour cell line growth inhibition, 48 h
assay metric: TGI

>>> meas_value("COc1ccc2c(c1)C1c3ccccc3CCN1CCC2 (stereo not given)")
"> 100 µM"
>>> meas_value("Cc1ccc(NC(=O)N2CCCCC2)cc1[N+](=O)[O-]")
"> 100 µM"
>>> meas_value("CC(C)N(C(=O)C12C3(C(=O)C(C)(C)C)C4C5(C#N)C3C1(C(=O)C(C)(C)C)C5C42C(=O)C(C)(C)C)C(C)C (stereo not given)")
"> 100 µM"
>>> meas_value("O=c1cc(-c2ccc3ccccc3c2)[nH]c2ncccc12")
"> 100 µM"
>>> meas_value("CC(C)(C)OC(=O)NC(Cc1ccc(OCc2ccccc2)cn1)C(=O)O (stereo not given)")
"> 100 µM"
>>> meas_value("O=C(/C=C/c1ccccc1Br)c1ccccc1")
"11.3 µM"
>>> meas_value("[O-]/[N+](=N/c1ncc(-c2ccccc2)cn1)c1ncc(-c2ccccc2)cn1")
"> 100 µM"
>>> meas_value("Clc1ccc(-c2nc(C(Cl)Cl)nc3cc(-c4ccccc4)nn23)cc1")
"> 50 µM"
>>> meas_value("CC1(C)N([O-])[N+](=O)C1(Br)c1ccccc1 (stereo not given)")
"> 100 µM"

# input for lookup
TGI for COc1cccc2c1C(=O)c1c(O)c3c(c(O)c1C2=O)C[C@@](O)(C(C)=O)C[C@@H]3OC1CC(O)C(O)C(C)O1 (stereo not given in full) is 6.93 µM

* * *

test system: SF-268 CNS; assay: NCI tumour cell line growth inhibition, 48 h
assay metric: GI50

# annotated cases, reported GI50 shown
>>> meas_value("O=C1Nc2ccc(CN3CCOC3=O)cc2/C1=C/c1cc(CN2CCOCC2)c[nH]1")
"> 86.5 µM"
>>> meas_value("COc1ccc(C2CC(c3cccc(OC)c3)=NN2C(=O)c2cc(OC)c(OC)c(OC)c2)cc1 (stereo not given)")
"4.09 µM"
>>> meas_value("Cc1nc2ccccc2c(/C=C/c2ccccc2)c1C(=O)/C=C/c1ccc(Cl)cc1")
"3.15 µM"
>>> meas_value("COc1cc(O)c2c(=O)c(OC)c(-c3ccc(OC)c(OC)c3)oc2c1.[Zn+2]")
"12.9 µM"
>>> meas_value("Cc1cc(S(=O)(=O)Nc2nc3ccccc3[nH]2)c(SCc2ccccc2)cc1Cl")
"> 100 µM"
>>> meas_value("CSC(=NC#N)S/C=C/C(=O)c1cccc2ccccc12")
"36.6 µM"
>>> meas_value("CC1=C/C(O)CC(=O)Cc2nc(co2)C(=O)N2CCC=C2C(=O)OC(C(C)C)C(C)/C=C\\C(=O)NC/C=C\\1 (stereo not given)")
"20.9 µM"
>>> meas_value("OCc1ncc(-c2ccccc2)s1")
"> 100 µM"

GI50 of O=c1oc2c(cc1-c1ccccc1)C(O)Oc1ccccc1-2 (stereo not given) , assay on SF-268 CNS, is 16.3 µM

GI50 of O=C(c1ccccc1)c1ccc(O)c2ncccc12 , assay on SF-268 CNS, is 3.11 µM

* * *

system: SK-OV-3 ovarian; experiment: NCI tumour cell line growth inhibition, 48 h
assay metric: TGI (µM)
API: value field is a number in µM; no unit string.

>>> meas_value("CC(=O)[C@]12OC(=O)C3=C1[C@H](CC[C@@H]3C)[C@@H](C)C[C@H]2C=C(C)C")
21.3

# input for lookup
TGI of C[CH2][Ge]([CH2]C)([CH2]C)[O]C(=O)C([O][Ge]([CH2]C)([CH2]C)[CH2]C)c1ccccc1 (centres undefined) , assay on SK-OV-3 ovarian, is 31.7

* * *

tested on: M19-MEL melanoma; test: NCI tumour cell line growth inhibition, 48 h
Reported values of TGI for individual entries

# annotated cases, reported TGI shown
>>> meas_value("Cc1[nH]c(=O)nc(N/N=C/c2ccc(Cl)cc2)c1C(=O)Nc1ccc(Cl)cc1")
"> 100 µM"
>>> meas_value("OCCSCC/C(=N\\N=C(/CCSCCO)c1ccccc1)c1ccccc1")
"> 100 µM"
>>> meas_value("Cc1nc2ccccc2c(=O)n1/N=C(\\N=Nc1ccccc1Cl)c1ccccc1")
"67.2 µM"

TGI of C=C[Si](C)(C)COC(=O)/C(C#N)=C/C=C/c1ccccc1 , assay on M19-MEL melanoma, is > 100 µM

TGI of Cc1cccc(C)c1NC(=O)CCCC(=O)C(C#N)c1ccc(Cl)cc1 (configuration not stated) , assay on M19-MEL melanoma, is > 100 µM

TGI of CC(=O)OC1CC2C(C)(C)OC(=O)CC(OC(C)=O)[C@]2(C)C2CCC3(C)C(=CCC3c3ccoc3)[C@]12C (some centres not stated) , assay on M19-MEL melanoma, is 52.3 µM

TGI of NC1=NCC(c2ccccn2)C1c1ccc(F)cc1 (configuration not stated) , assay on M19-MEL melanoma, is > 100 µM

* * *

test system: HCT-116 colon; assay: NCI tumour cell line growth inhibition, 48 h
Reported values of TGI for individual entries
API: value field is a number in µM; no unit string.

# annotated cases, reported TGI shown
>>> meas_value("O=C(Nc1cc(C(F)(F)F)cc(C(F)(F)F)c1)Nc1ccc(OCc2nnc(-c3ccc(Cl)cc3)o2)c(F)c1")
3.02
>>> meas_value("CC(C)(C)OC(=O)NCC(=O)N(CCc1ccc(Cl)c(Cl)c1)CCN1CCCC1")
27.9

# input for lookup
TGI for C=C1C(=O)O[C@H]2[C@H]1CC/C(COC(=O)C(=O)c1c[nH]c3ccc(Cl)cc13)=C\CC[C@@]1(C)O[C@@H]21 is 3.23

* * *

system: MALME-3M melanoma; assay: NCI tumour cell line growth inhibition, 48 h
Decide by TGI: equal to or exceeding 50 µM means rule met, less means rule not met.

For orientation, consider the following solved cases.
>>> discrete_label("Cc1cccc(Cl)c1NC(=O)c1cccc([N+](=O)[O-])c1O")
"rule met"
>>> discrete_label("C[C@@H]1CC[C@@H]2[C@@H]1[C@H](OC(=O)c1ccc3ccccc3c1)[C@]1(C3CCCCC3)C[C@@H](OC(=O)CO)[C@@]2(C)O1")
"rule not met"
>>> discrete_label("COc1cc(/C=C2\\CC(C)C/C(=C\\c3ccc(O)c(OC)c3)C2=O)ccc1O (centres undefined)")
"rule not met"
>>> discrete_label("COc1ccc(OC2OC(CO)C(O)C(O)C2O)cc1 (centres undefined)")
"rule met"
>>> discrete_label("CC(=O)[O][Hg][CH2]C1(C)COC(C)([CH2][Hg][O]C(C)=O)CO1 (centres undefined)")
"rule not met"
>>> discrete_label("COC(=O)/C=C/c1ccc2c(c1)[C@H](C(=O)OC)[C@@H](c1ccc(O)cc1)O2")
"rule met"

Query string: Say whether CN(C)CCC(/C=C/c1ccccc1)=N\Nc1ccc(Cl)cc1 shows TGI of 50 µM or more.
Result string: rule not met

Query string: Say whether O=C(c1ccccc1)c1ccc(O)c2ncccc12 shows TGI of 50 µM or more.
Result string: rule not met

Query string: Say whether O=C(c1ccc(Cl)c(Cl)c1)N(C(=O)N1CCN(c2ccccc2)CC1)S(=O)(=O)c1ccccc1 shows TGI of 50 µM or more.
Result string: rule met

Query string: Say whether Cc1ncc([N+](=O)[O-])n1CCNC(=O)Cn1ccnc1[N+](=O)[O-] shows TGI of 50 µM or more.
Result string: rule met

Query string: Say whether CC(C)(C)CN1[C@@H]2CCCC[C@H]2N(CC(C)(C)C)P1(=O)C(O)/C=C/c1ccccc1 (some centres undefined) shows TGI of 50 µM or more.
Result string: rule met

Query string: Say whether O=[N+]([O-])c1cc2ccc1OCc1cccc(n1)COc1ccc(cc1[N+](=O)[O-])C=NCCCCCCCCN=C2 shows TGI of 50 µM or more.
Result string: rule met

Query string: Say whether C=C1C(=O)O[C@H]2[C@H]1CC/C(COC(=O)C(=O)c1c[nH]c3ccc(Cl)cc13)=C\CC[C@@]1(C)O[C@@H]21 shows TGI of 50 µM or more.
Result string: rule not met

Query string: Say whether CCOC(=O)Nc1ccc(C(=O)/C=C/c2ccccc2)cc1 shows TGI of 50 µM or more.
Result string: rule met

Query string: Say whether C/C(=C1/N=C(c2ccccc2)OC1=O)c1ccccc1 shows TGI of 50 µM or more.
Result string: rule met

Query string: Say whether COc1ccc(/C(=C\c2cc(OC)c(OC)c(OC)c2)C(=O)O)cc1 shows TGI of 50 µM or more.
Result string: rule met

Query string: Say whether O=C(O)c1cc2cc(O)ccc2[nH]1 shows TGI of 50 µM or more.
Result string: rule met

Query string: Say whether COc1cc(O)c2c(=O)c(OC)c(-c3ccc(OC)c(OC)c3)oc2c1.[Zn+2] shows TGI of 50 µM or more.
Result string: rule met
